Documented MIC across a set of compounds
tested on: Trichophyton verrucosum; experiment: MIC (Minimum Inhibitory Concentration); assay type: cell-based; details: Trichophyton verrucosum 134-66, read-out: MIC values
The reply should contain only the number, in µg/mL.

// worked examples, MIC included
1) [C-]#[N+]C(C1=CCOCC1)S(=O)(=O)c1ccc(C)cc1 (centres unmarked) [Example 14b]	3
2) C[C@@H]1C/C=C/C=C/C=C/C=C/[C@H](O[C@@H]2O[C@H](C)[C@@H](O)[C@H](N)[C@@H]2O)C[C@@H]2O[C@](O)(C[C@@H](O)C[C@H]3O[C@@H]3/C=C/C(=O)O1)C[C@H](O)[C@H]2C(=O)O [natamycin, reference compound]	25
3) Clc1ccc(COC(Cn2ccnc2)c2ccc(Cl)cc2Cl)c(Cl)c1 (centres unmarked) [miconazole, reference compound]	0.8
4) [C-]#[N+]C(=C(C)CC)S(=O)(=O)c1ccc(C)cc1 [Example 27a]	0.8
5) [C-]#[N+]C(=Cc1cccn1C)S(=O)(=O)c1ccc(C)cc1	6

Attention now turns to another entry.
Query block: # MIC lookup, item `[C-]#[N+]C(=C(C)c1ccco1)S(=O)(=O)c1ccc(C)cc1`
Result block: 0.8

* * *

system: Candida albicans; assay: MIC (Minimum Inhibitory Concentration); format: cell-based; conditions: read-out: MIC values, Candida albicans A 3144
Documented MIC across a set of molecules
The reply should contain only the number, in µg/mL.

1) [C-]#[N+]C(=C1CCCCC1)S(=O)(=O)c1ccccc1 [Example 25]	3
2) [C-]#[N+]C(=C1CCSCC1)S(=O)(=O)c1ccc(C)cc1 [Example 16a]	12.5
3) [C-]#[N+]C(=C1CCCCCC1)S(=O)(=O)c1ccc(C)cc1 [Example 18a]	3
4) [C-]#[N+]C(=C1CCOCC1)S(=O)(=O)c1ccc(C)cc1 [Example 14a]	25
5) Clc1ccc(COC(Cn2ccnc2)c2ccc(Cl)cc2Cl)c(Cl)c1 (stereo not shown) [miconazole, reference compound]	0.8
6) [C-]#[N+]C(=C1CCCCC1)S(=O)(=O)c1ccc(C)cc1 [Example 7]	6
7) [C-]#[N+]C(C1=CCCCCC1)S(=O)(=O)c1ccc(C)cc1 (stereo not shown) [Example 18b]	12.5
8) [C-]#[N+]C(C1=CCCCCCC1)S(=O)(=O)c1ccc(C)cc1 (stereo not shown) [Example 20]	6

Attention now turns to another entry.
Query block: # MIC lookup, item [C-]#[N+]C(=C1CCCC1)S(=O)(=O)c1ccc(C)cc1 [Example 9]
Result block: 1.5

* * *

tested on: Trichophyton tonsurans; test: MIC (Minimum Inhibitory Concentration); type: cell-based; details: Trichophyton tonsurans 561-50; read-out: MIC values
MEASURED ATTRIBUTE: MIC (µg/mL)
The reply should contain only the number, in µg/mL.

Query block: # MIC lookup, item `[C-]#[N+]C(=C(CCCC)c1ccccc1)S(=O)(=O)c1ccc(C)cc1`
Result block: 0.4

* * *

Documented MIC across a set of compounds
test system: Candida albicans; test: MIC (Minimum Inhibitory Concentration); format: cell-based; details: read-out: MIC values, Candida albicans A 3194

1. Clc1ccc(COC(Cn2ccnc2)c2ccc(Cl)cc2Cl)c(Cl)c1 (stereo not shown) [miconazole, reference compound]	0.2 µg/mL
2. [C-]#[N+]C(C1=CCCCCCC1)S(=O)(=O)c1ccc(C)cc1 (stereo not shown) [Example 20]	3 µg/mL
3. [C-]#[N+]C(=C1CCCCC1)S(=O)(=O)c1ccccc1 [Example 25]	3 µg/mL
4. [C-]#[N+]C(=C1CCSCC1)S(=O)(=O)c1ccc(C)cc1 [Example 16a]	25 µg/mL
5. [C-]#[N+]C(=C1C2CC3CC(C2)CC1C3)S(=O)(=O)c1ccc(C)cc1 [Example 2]	> 100 µg/mL

Query block: Candida albicans / MIC / [C-]#[N+]C(=C1CCOCC1)S(=O)(=O)c1ccc(C)cc1 [Example 14a] : value?
Result block: 12.5 µg/mL
